Molecular target: T1, cyno TREM-1 (cynomolgus monkey, UniProt A0A2K5VHG8 21-233)
T1 sequence: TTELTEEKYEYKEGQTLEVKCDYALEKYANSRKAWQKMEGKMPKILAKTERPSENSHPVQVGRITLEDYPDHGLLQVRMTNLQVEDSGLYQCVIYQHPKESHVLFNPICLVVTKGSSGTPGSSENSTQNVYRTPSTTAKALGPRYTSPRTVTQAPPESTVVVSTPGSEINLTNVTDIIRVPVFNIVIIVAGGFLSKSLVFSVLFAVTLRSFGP
Assay: cell-based or functional assay
OBSERVATION TYPE: Ab IC50-Cyno PBMC (Trial 2), TNFα release induced by cyno PGLYRP1/PGN (nM)
# output: bare number, implied unit nM

Sample records with Ab IC50-Cyno PBMC (Trial 2), TNFα release induced by cyno PGLYRP1/PGN:
57C10 (antibody, V domains shown) VH: QVQLVQSGAEVKKPGASVKVSCKASGYTFTRYDINWVRQATGQGLEWMGWLNPNSGNTGQTQKFRGRVTMTRNTSINTAYMELSSLRSEDTAVYYCARGGYTSAWRWYFDLWGRGTLVTVSS VL: DIQMTQSPSSLSASVGDRVTITCQASQDINNHLNWYQQKPGKAPKLLIYDVSNLETGVPSSFSGSGCGTDFTFTISSLQPEDIATYFCQQYDKLPLTFGGGTKVEIE | 0.0284
61B12 (antibody, V domains shown) VH: QVQLVQSGAEVTKPGASVKVSCKASGYTFTRYDINWVRQATGQGLEWMGWMNPNSGNSGSVQKFRGRVTMTRNTSITTVYMELSSLRSDDTAVYYCARGGISSSWHWAFDIWGQGTMVTVSS VL: DIQMTQSPSSLSASVGDRVTITCQASQDINNHLNWYQQKPGKAPKLLIYGAYTLETGVPSRFSGSGSGTDFTFTISSLQPEDIATYYCQQYDKLPLTFGGGTKVEIK | 0.0174
64D7 (antibody, V domains shown) VH: QVQLVQSGAEVKKPGASVKVSCKASGYTFTSYDINWVRQATGQGLEWMGWMNPNRGNTGYVKKFQGRVTMTRNTSISTAYMELSSLRSEDTAVYYCARRRAVYRSSWEWYFDLWGRGTLVTVSS VL: DTQMTQSPSSLSASEGDRVTITCQASQDIFNDLNWYQEKPGKAPKLLIYHASNLETGVPSRFSGSGSGTDYTFTISSLQPEDIATYYCQQYGNLPLTFGGGTKVEIK | 0.78
44A5 (antibody, V domains shown) VH: EVQLLESGGGLVQPGGSLRLSCAASGFTFSTYAMNWVRQAPGKGLEWVSTVSGSGRPTYYADSVKGRFTISRDNSKNTLYLQMNSLRAEDTAVYYCAKAYYSNYLFDYWGQGTLVTVSS VL: EIVMTQSPAILSVSPGERATLSCRASQSVSSNLAWYQQKPGQAPRLLIYGASTRATGVPARFSGGGSGTDFTLTISSLQSEDFAVYYCQHCKTWPPLTFGGGTKVDLK | 0.0091

Request: What value of Ab IC50-Cyno PBMC (Trial 2), TNFα release induced by cyno PGLYRP1/PGN has been reported for the following binder? 63F8 (antibody, V domains shown) VH: QVQLVQSGAEVKKPGASVKVSCKASGYTFTSYDINWVRQATGQGLEWMGRMNPKSGNAGYVQNFRGRVTMTRNTSISTAYMELSSLRSEDTAVYYCARGGRTSIWSFVFDYWGQGTLVTVSS VL: DIQMTQSPSSLSASVGDRVTITCQASQDISKHLNWYQQKPGKAPKLLIYDTSNLETGVPSRFSGSGSGTDFTFTISSLQPEDIATYNCQQYDKLPLTFGGGTKVEIK
Result: 0.0161

Request: What value of Ab IC50-Cyno PBMC (Trial 2), TNFα release induced by cyno PGLYRP1/PGN has been reported for the following binder? 49A2 (antibody, V domains shown, also called 19333) VH: EVQLVESGGGLVQPGGSLRLSCAASGFTFSSNWMSWVRQAPGKGLDWMASMKQDGSEIYYVDSVKGRFTISRDNAKNSLHLQMNSLRAEDTAVYYCVRGGWRFESWGQGALVTVSS VL: EIVMTQSPATLSVSPGERATLSCRASQSVSSNLAWYQQKSGQAPRLLIYGASIRATGIPARVSGSGSGTEFTFTISSLQSEDFAVYYCQQYKNWPLTLGGGTKVEIK
Result: 0.266

Request: What value of Ab IC50-Cyno PBMC (Trial 2), TNFα release induced by cyno PGLYRP1/PGN has been reported for the following binder? 46H7 (antibody, V domains shown) VH: EVQLLESGGGMVQPGGSLRLSCAVSGFTFSRYAMSWVRQAPGKGLEWVSEMRGSSGSTYYADSVKGRFTISRDNSKNTLYLQMNSLRVEDTAIYYCAKEFSSNSLFDYWGQGTLVTVSS VL: EIVMTQSPATLSVSPGERATLSCRASQSVNSNLAWYQQKPGRAPRLLIYGASTRATGIPARFSGSGSGTEFTLTISSLQSEDFAVYYCQQFYNWPPWTFGQGTKVEIK
Result: 0.0097
